# METHOD NOTES: Glutathione reactivity in pH 7.4 phosphate buffered saline assessed as isosbestic point at 50 uM by UV-Vis absorption spectral analysis
# Format: physicochemical
# CONDITION INFO: buffer, pH 7.4, 50 µM
METRIC: Activity

Activity recorded for this compound, CCC1=C(Cl)C(=O)c2cc(OC)c(OC)c(OC)c2C1=O , is 285 to 317 nm

* * *

# METHOD NOTES: Selectivity index, ratio of IC50 for human WI38 cells to IC50 for HL60 cells
# Type: toxicity
# CONDITION INFO: WI38 cells versus HL60 cells, read-out: Ratio IC50
Rule: selectivity ratio of 6 or more gives met; anything lower gives not met.

[
  {
    "SMILES REPR": "CCCC1=C(Cl)C(=O)c2cc(OC)c(OC)c(OC)c2C1=O",
    "DISCRETE LABEL": "met"
  },
  {
    "SMILES REPR": "COc1cc2c(c(OC)c1OC)C(=O)C=C(Cl)C2=O",
    "DISCRETE LABEL": "not met"
  },
  {
    "SMILES REPR": "CCCCC1=C(Cl)C(=O)c2cc(OC)c(OC)c(OC)c2C1=O",
    "DISCRETE LABEL": "not met"
  },
  {
    "SMILES REPR": "CCCCCCC1=C(Cl)C(=O)c2cc(OC)c(OC)c(OC)c2C1=O",
    "DISCRETE LABEL": "not met"
  },
  {
    "SMILES REPR": "O=C1C=C(Cl)C(=O)c2ccccc21",
    "DISCRETE LABEL": "not met"
  },
  {
    "SMILES REPR": "CCC1=C(Cl)C(=O)c2cc(OC)c(OC)c(OC)c2C1=O",
    "DISCRETE LABEL": "met"
  }
]

Lab note: next compound to report on.
Assess whether reported selectivity ratio for CC1=CC(=O)c2c(O)cccc2C1=O sits at 6 or higher.
met

Value source: ChEMBL document CHEMBL4229442
